Source: BindingDB's records for doi:10.1016/j.bmcl.2008.05.016

Assay: Inhibition of Cdk1
READOUT_TYPE: IC50 (µM)

Worked examples follow.
NC(=O)Nc1sc(-c2ccncc2)cc1C(=O)N[C@H]1CCCNC1 = 1.8
CCN(CC)CCOc1ccc(-c2cc(C(=O)Nc3cccnc3)c(NC(N)=O)s2)cc1 = 44
CN(C)C(=O)c1ccc(-c2cc(C(=O)N[C@H]3CCCNC3)c(NC(N)=O)s2)cc1 = 3.7
NC(=O)Nc1sc(-c2cccc(F)c2)cc1C(=O)N[C@H]1CCCNC1 = 5.6
NC(=O)Nc1sc(-c2ccc(F)cc2)cc1C(=O)N[C@H]1CCCNC1 = 3.3

(1) Cc1ccc(-c2cc(C(=O)N[C@H]3CCCNC3)c(NC(N)=O)s2)cc1
(2) CS(=O)(=O)c1ccc(-c2cc(C(=O)N[C@H]3CCCNC3)c(NC(N)=O)s2)cc1
(3) NC(=O)Nc1sc(-c2cccc(Cl)c2)cc1C(=O)N[C@H]1CCCNC1
Hey, quick one: sort these by IC50, low to high? The reply should contain the labels ordered as requested. 2, 1, 3

----------
Experiment: Inhibition of Cdk1
pIC50: −log10 of the molar value.
READOUT_TYPE: pIC50

CN(C)c1ccc(-c2cc(C(=O)N[C@H]3CCCNC3)c(NC(N)=O)s2)cc1 = 5.08
NC(=O)Nc1sc(-c2ccc(C(=O)N3CCCCC3)cc2)cc1C(=O)N[C@H]1CCCNC1 = 4.97
